// provenance: PubChem BioAssay

- ASSAY_SYSTEM: Torsin-1A-interacting protein 1 (Homo sapiens) (UniProt Q5JTV8)
- Sequence (Q5JTV8 whole entry, looked up): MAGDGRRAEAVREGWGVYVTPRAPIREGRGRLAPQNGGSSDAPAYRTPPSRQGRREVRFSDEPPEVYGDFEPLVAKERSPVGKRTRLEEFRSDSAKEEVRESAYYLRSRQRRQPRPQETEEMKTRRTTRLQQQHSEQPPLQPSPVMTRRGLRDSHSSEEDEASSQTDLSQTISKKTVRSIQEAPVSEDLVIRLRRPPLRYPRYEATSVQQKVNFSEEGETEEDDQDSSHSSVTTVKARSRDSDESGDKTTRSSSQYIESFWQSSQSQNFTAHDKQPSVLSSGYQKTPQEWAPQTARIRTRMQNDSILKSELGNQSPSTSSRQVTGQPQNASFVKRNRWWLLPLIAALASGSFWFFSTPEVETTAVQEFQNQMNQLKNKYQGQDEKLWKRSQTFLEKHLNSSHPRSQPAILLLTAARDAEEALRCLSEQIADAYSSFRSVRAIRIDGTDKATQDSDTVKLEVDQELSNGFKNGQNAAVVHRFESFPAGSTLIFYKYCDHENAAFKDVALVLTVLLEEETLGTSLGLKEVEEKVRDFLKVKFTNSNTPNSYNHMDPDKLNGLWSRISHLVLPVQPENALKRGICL
- ASSAY_METHOD_TEXT: LAP1 binders from COS7 cell lysate, primary screen, small-molecule microarray, 635/667 nm fluorescence (AID 1116)
- EXPERIMENTAL_PARAMETERS: COS7-hLAP1 lysate binding, 635 nm fluorescence, higher = more signal
Parameter threshold = 0.5. Response is label 1 when composite z-score meets or exceeds it, else label 0.

Query: I'd appreciate it if you could say whether `C[C@]1(C(=O)NC2CC2)c2ccccc2C(=O)N(Cc2cc(C(F)(F)F)cc(C(F)(F)F)c2)[C@H]1c1ccc(CO)cc1` has composite z-score at least equal to 0.5.
Result: label 0

Query: I'd appreciate it if you could say whether `COc1ccc([Si](C)(C)[C@@H]2[C@@H](CC(=O)N3Cc4ccccc4C[C@H]3CO)O[C@]3(C(=O)N(C)c4c(Br)cc(C)cc43)[C@H]2C)cc1` has composite z-score at least equal to 0.5.
Result: label 0

Query: I'd appreciate it if you could say whether C=CCC(OC(C)=O)[C@@H]1[C@@H](N(Cc2cccc3ccccc23)C(=O)c2ccc(-c3ccccc3)cc2)c2cc(OCCCO)ccc2N1C(=O)Cc1ccc(OC)cc1 (stereo partly specified) has composite z-score at least equal to 0.5.
Result: label 0

Query: I'd appreciate it if you could say whether CN1C(=O)C2C=CC(C(O)c3cccs3)N(Nc3ccccc3)C2C1=O (stereo unspecified) has composite z-score at least equal to 0.5.
Result: label 1

Query: I'd appreciate it if you could say whether `COc1ccc(C(=O)Nc2ccc(CN3C(=O)[C@@]4(O[C@@H](CCn5cc([C@H](O)c6ccccc6)nn5)[C@H]([Si](C)(C)c5ccc(OC)cc5)[C@H]4C)c4ccccc43)cc2)cc1` has composite z-score at least equal to 0.5.
Result: label 0

Query: I'd appreciate it if you could say whether `C[N+](C)(C)CCCCNC(=O)[C@H]1C[C@H]2C(=O)N[C@@H](Cc3ccccc3)C(=O)N2[C@H]1c1ccc(O)cc1` has composite z-score at least equal to 0.5.
Result: label 0

----------
- ASSAY_METHOD_TEXT: HepG2 cell viability effects, profiling panel, calcein-AM fluorescence, 48 h, basal (AID 1164); also: test concentration not given here
- EXPERIMENTAL_PARAMETERS: higher = more signal
Known z-score of a selection of molecules
Lab note: jot down the number only; don't add units.

Examples from the recorded data:
O=C(NCc1ccccc1)[C@@]1(Cc2ccccc2)N=C(c2ccc(OCCCO)cc2)O[C@H]1c1ccccc1 :: -2.26
C=CCC(OC(C)=O)[C@@H]1[C@@H](N(Cc2ccc(-c3cccc(C(F)(F)F)c3)o2)C(=O)Cc2ccc(F)cc2)c2cc(OCCCO)ccc2N1C(=O)Cc1ccc(OC)cc1 (stereo partly specified) :: 0.892
CCOC(=O)C[C@H]1[C@H](OC(=O)c2cc3ccccc3oc2=O)[C@@H](NC(=O)C2CCCCC2)c2cc(OCCCO)ccc2N1C(=O)c1ccccc1 :: 0.914
Cc1ccc(S[C@]2(C(=O)NCC(C)C)CC(=O)N(Cc3cc(C(F)(F)F)cc(C(F)(F)F)c3)[C@@H]2c2ccc(CO)cc2I)cc1 :: -0.588
COCCOC(=O)N1C(=O)[C@@]2(c3cc(C#CC4(O)CCCCCC4)ccc31)[C@H](c1ccc(O)cc1)N1[C@H](c3ccccc3)[C@H](c3ccccc3)OC(=O)[C@H]1[C@@H]2C(=O)Nc1nc2ccccc2s1 :: 0.702

z-score recorded for this molecule, `C=CCN1C(=O)[C@@]2(O[C@@H](CCO)[C@H]([Si](C)(C)c3ccc(OC)cc3)[C@H]2C)c2cc(NC(=O)c3ccc(OC)cc3)ccc21` , is -4.47

z-score recorded for this molecule, `C=C(COC)/C(=C/C[C@@H](OC(C)=O)c1ccc(CO)o1)c1cnc2ccccc2c1` , is -0.856

z-score recorded for this molecule, `CC(C)N1C(=O)c2ccccc2[C@](C)(C(=O)NCc2ccccc2)[C@@H]1c1ccc(CO)cc1` , is -0.699

z-score recorded for this molecule, `COCC(=C=CC[C@H](O)c1ccccc1OCCO)C[C@H](O)c1cc(Cl)cc(Cl)c1O` , is -2.64

z-score recorded for this molecule, `O=C1c2ccccc2[C@@]2(Cc3ccccc3N(CC(F)(F)F)C2=O)[C@H](c2ccc(CO)cc2)N1Cc1ccccc1Cl` , is -0.0395

z-score recorded for this molecule, COc1ccc(C(O)C2C=CC3C(=O)NC(=O)C3N2Nc2ccccn2)cc1 (stereo unspecified) , is -0.454

----------
- ASSAY_METHOD_TEXT: binders of probe aHhip on microarray, primary screen, stem cell growth factor project, biochemical, small-molecule microarray, fluorescence 635/667 (AID 1087);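 also: score merges spot fluorescence at 667nm with spot signal to noise ratio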
- EXPERIMENTAL_PARAMETERS: higher = more signal
PROPERTY_NAME: composite z-score
Lab note: jot down the number only; don't add units.

Examples from the recorded data:
CN1C2C=C(CCCO)C(C3C(=O)N(C(N)=O)C(=O)C32)C1c1ccc(CN2CCCC2)cc1 (stereo unspecified) :: 0.141
C=C(CCCC)/C(=C/C[C@@H](OC(C)=O)c1ccccc1OCCO)c1cnc2ccccc2c1 :: 0.176
COC(=O)c1c(CC[C@@H](CO)NC(=O)N[C@@H](C)Cn2cc(C3(O)CCCCC3)nn2)oc(C(C)=O)c1C(=O)OC :: -0.184
CC(C)C[C@H]1NC(=O)[C@@]23C(=O)N[C@@H](Cc4ccccc4)C2[C@H](C)[C@@]2(C)O[C@H]2C3/C=C/C/C=C\CNC(=O)[C@H](Cc2ccccc2)NC1=O (stereo partly specified) :: -0.0994
[N-]=[N+]=NCc1ccccc1C[C@]1(C(=O)O)N=C(c2ccc(OCCCO)cc2)O[C@H]1c1ccccc1N=[N+]=[N-] :: 0.138
COC(=O)[C@@]1(Cc2ccc(OC)cc2)[C@H]2c3cc(C(=O)N(C)C)n(CCN4CNCC4=O)c3C[C@H]2CN1C(=O)c1ccccc1 :: 0.983
C=CCOC(=O)[C@H]1[C@@H]2C(=O)O[C@@H](c3ccccc3)[C@@H](c3ccccc3)N2[C@@H](c2ccc(OCCOC(=O)[C@H]3C[C@H]4C(=O)N5CCC[C@H]5C(=O)N4[C@H]3c3ccc(O)cc3)cc2)[C@]12C(=O)Nc1ccccc12 :: 0.0881
COc1ccc(CCNC(=O)[C@@H]2c3ccccc3C(=O)N(C3Cc4ccccc4C3)[C@H]2c2ccc(CO)cc2)cc1 :: 0.113
COc1ccc(C(O)C2C=CC3C(=O)N(c4ccccc4)C(=O)C3N2Nc2ccc(C(C)C)cc2)cc1OCc1ccccc1 (stereo unspecified) :: -0.168
COCCOC(=O)N1C(=O)[C@@]2(c3cc(C#CCCO)ccc31)[C@H](C(=O)N1CCN(c3ncccn3)CC1)[C@H]1C(=O)O[C@H](c3ccccc3)[C@H](c3ccccc3)N1[C@@H]2c1ccccc1OCCO :: -0.0296

composite z-score recorded for this molecule, `CC(C)(C)C(=O)N[C@@H](c1ccc(Cl)cc1)[C@]1(C)C[C@H]1C1CCCCC1` , is 0.0053

composite z-score recorded for this molecule, CCCCCN1CC=CC23O[C@@H]4/C=C\CCCOC(=O)C4[C@H]2C(=O)N(C(CO)C(C)C)[C@@H]3C1=O (stereo partly specified) , is 0.0854

composite z-score recorded for this molecule, `COc1ccc([C@H]2C[C@H]3C(Br)=C[C@@H]2C(=O)[C@]32CO2)cc1` , is -0.0618

composite z-score recorded for this molecule, `C=CC[C@]12N=C(c3ccc(OCCCO)cc3)O[C@H]1c1ccccc1N(Cc1ccccc1)C2=O` , is 0.0176

composite z-score recorded for this molecule, `O=C1O[C@H](c2ccccc2)[C@H](c2ccccc2)N2[C@H]1[C@@H](C(=O)Nc1nc3ccccc3s1)[C@]1(C(=O)Nc3ccc(C#CCCO)cc31)[C@H]2c1ccc(OCCO)cc1` , is 0.224

composite z-score recorded for this molecule, `O=C1O[C@H](c2ccccc2)[C@H](c2ccccc2)N2[C@H]1[C@@H](C(=O)Nc1nc3ccccc3s1)[C@]1(C(=O)Nc3ccc(C#CC4(O)CCCCCC4)cc31)[C@H]2c1ccc(OCCO)cc1` , is 0.0413

----------
- ASSAY_METHOD_TEXT: E. coli DRC41 culture turbidity changes, primary screen, E. coli filamentation inducer project, strain DRC41, OD650, 48 h (AID 1152);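 also: E. coli MC1000 strain DRC41 lacking acrAB efflux pump and sulA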
- EXPERIMENTAL_PARAMETERS: E. coli DRC41 (acrAB sulA), higher = more signal, called active from +8 up or from −8 down
PROPERTY_NAME: z-score
Lab note: jot down the number only; don't add units.

Examples from the recorded data:
O=C1NC(=O)C2C1C=CC(C(O)Cc1ccccc1)N2Nc1ccc(Cl)cc1Cl (stereo not drawn) :: -0.78
CN(C)CCCNC(=O)[C@@]1(c2ccc([N+](=O)[O-])cc2)CC(=O)N(C2CCCCC2)[C@@H]1c1ccc(CO)cc1 :: 0.0097
CC(=O)N1Cc2ccccc2C[C@@]2(COC(c3ccc(OCCCO)cc3)=N2)C1=O :: 2.48
COc1ccc(NN2C(C(O)c3ccc([N+](=O)[O-])cc3)C=CC3C(=O)N(C4CCCCC4)C(=O)C32)cc1 (stereo not drawn) :: -0.256
COc1ccc(COC2OC[C@]3(C)[C@H]4C5=C(CN3C(=O)OC(C)(C)C)[C@H](C)C(CO)C(CO)C5CC[C@@H]24)cc1 (stereo partly drawn) :: -2.31

z-score recorded for this molecule, `COCCCNC(=O)[C@@]1(Cc2ccccc2N=[N+]=[N-])N=C(c2ccc(OCCCO)cc2)O[C@H]1c1ccccc1N=[N+]=[N-]` , is -0.439

z-score recorded for this molecule, `CC(C)OC(=O)C=C1C[C@@H](c2ccccc2C(F)(F)F)O[C@@H](c2ccccc2C(F)(F)F)O1` , is -0.66

z-score recorded for this molecule, `COC(=O)[C@@]1(Cc2ccccc2)[C@H]2c3cc(C(=O)N4CCCC4)n(Cc4cccc5ccccc45)c3C[C@H]2CN1C(=O)c1ccccc1` , is -1.22

z-score recorded for this molecule, `O=C1NCC(=O)N2[C@@H]1C[C@@H](C(=O)O)[C@H]2c1cccc(OCCO)c1` , is 0.0481

z-score recorded for this molecule, `CC(=O)NCCCC[C@@H]1NC(=O)[C@@H]2C[C@H](C(=O)NCCCCN(C)C)[C@H](c3cccc(OCCO)c3)N2C1=O` , is 0.522

z-score recorded for this molecule, `C=CC[C@@]1(C(=O)NCc2ccccc2)N=C(c2ccc(OCCCO)cc2)O[C@@H]1c1ccccc1N=[N+]=[N-]` , is -0.304

z-score recorded for this molecule, O=C1OCCC/C=C\[C@H]2OC34C=CCN(Cc5ccccc5)C(=O)[C@H]3N(CCCCCCO)C(=O)[C@@H]4C12 (stereo partly drawn) , is 1.19

z-score recorded for this molecule, OC([C@@H]1CC(c2ccccc2)=NO1)[C@H]1CC(c2ccccc2)=NO1 (stereo partly drawn) , is 2.12
